Measured values drawn from paper PMC8954220 for this set.

Assay Text: In vitro cytotoxicity, cell viability assay (CCK-8)
Settings: human, human foreskin fibroblasts (HFFs)
Result Type: CC50 at 72 h (nM)
Entry rule: numbers only, all in nM.

Query: Write down CC50 at 72 h measured for item CSC[S@+]([O-])C[C@H](CO)NC(=O)/C=C/c1c(C)[nH]c(=O)[nH]c1=O [Sparsomycin, sparsomycin]
Result: 1140

###

Assay Text: Erythrocyte hemolysis assay
Type: cell-based
Settings: human, 3 h at 37 °C, mean ± SD, read-out: RBC Hemolysis Rate (%) at 100 μM
Result Type: hemolysis at 3 h, 100 µM (%)
Entry rule: numbers only, all in %.

Query: Write down hemolysis at 3 h, 100 µM measured for item CSC[S@+]([O-])C[C@H](CO)NC(=O)/C=C/c1c(C)[nH]c(=O)[nH]c1=O [Sparsomycin, sparsomycin]
Result: 1.04

###

System: P. falciparum K1
Assay Text: SYBR Green I-based fluorescence in vitro growth inhibition assay
Format: cell-based, Plasmodium falciparum
Settings: Plasmodium falciparum, K1, 72 h, read-out: IC50 P. falciparum K1
Result Type: IC50 (nM)
Entry rule: numbers only, all in nM.

[
  {
    "Molecule": "CCN(CC)CCCC(C)Nc1ccnc2cc(Cl)ccc12 (centres unmarked) [Chloroquine, Chloroquine diphosphate, reference compound]",
    "Assayed System": "P. falciparum K1",
    "Recorded Result": 740
  }
]

Query molecule follows.
Query: State the measured IC50 (P. falciparum K1) of CSC[S@+]([O-])C[C@H](CO)NC(=O)/C=C/c1c(C)[nH]c(=O)[nH]c1=O [Sparsomycin, sparsomycin]
Result: 25.4
